B1: tRNA (parent)
chain: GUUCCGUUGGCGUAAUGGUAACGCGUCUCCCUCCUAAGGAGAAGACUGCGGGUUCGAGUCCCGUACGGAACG

# Variants of: B1
# assay-explanation: yeast fitness, log relative to wild type (ln ratio); higher = fitter; tRNA-Arg(CCU), competitive growth, 37 C, 1 M NaCl
assay-readout: yeast fitness (ln)
Numbers only.

Example entries and their recorded answers appear below.
GUUCCAUUGGCGUAAUGGUAACGCGUUUCCCUCCUAAGGAGACGACUGCGGGUUCGAGUCCCGUAUGGAGUG [G6A C27U A43C C66U A70G C71U] = -0.302
GCUCCUUUGGCGUAAUGGUAACGCGUUUCCCUCCUAAGGAGAAGAUUGCGGGUUCGAGUCCCGUAUGGAUUG [U2C G6U C27U C46U C66U A70U C71U] = -0.335
GGUCCAUUGGCGUAAUGGUAACGCGUUUCCCUCCUAAGGAGAAGACUGCGGGUUCGAGUCCCGUAUGGAAUG [U2G G6A C27U C66U C71U] = -0.238
GUUCCGUUGGCGUAAUGGUAACGCGUCUCCCUCCUAAGGAGACGAUUGCGGGUUCGAGUCCCGUACGGAUUG [A43C C46U A70U C71U] = -0.131
GUUCCUUUGGCGUAAUGGUAACGCGUCUCCCUCCUAAGGAGAAGACUGCGGGUUCGAGUCCCGUACGGAUCG [G6U A70U] = -0.0758

Okay, here is my list. What is yeast fitness (ln) for each of these?
1. GUUCCAUUGGCGUAAUGGUAACGCGUUUCCCUCCUAAGGAGACGAUUGCGGGUUCGAGUCCCGUAAGGGUCG [G6A C27U A43C C46U C66A A69G A70U]
2. GCUCCAUUGGCGUAAUGGUAACGCGUUUCCCUCCUAAGGAGAAGACUGCGGGUUCGAGUCCCGUAAGGAUCG [U2C G6A C27U C66A A70U]
3. GCUCCAUUGGCGUAAUGGUAACGCGUUUCCCUCCUAAGGAGACGACUGCGGGUUCGAGUCCCGUACGGGUCG [U2C G6A C27U A43C A69G A70U]

-0.28
-0.0448
-0.215

Dear reader, for each entry below, please note its yeast fitness (ln).
1. AUUCCGUUGGCGUAAUGGUAACGCGUUUCCCUCCUAAGGAGAAGACUGCGGGUUCGAGUCCCGUAAGGAGCG [G1A C27U C66A A70G]
2. AUUCCUUUGGCGUAAUGGUAACGCGUUUCCCUCCUAAGGAGAAGAUUGCGGGUUCGAGUCCCGUAUGGAGUG [G1A G6U C27U C46U C66U A70G C71U]
3. ACUCCAUUGGCGUAAUGGUAACGCGUCUCCCUCCUAAGGAGACGACUGCGGGUUCGAGUCCCGUAUGGAUUG [G1A U2C G6A A43C C66U A70U C71U]
4. ACUCCUUUGGCGUAAUGGUAACGCGUUUCCCUCCUAAGGAGAAGAUUGCGGGUUCGAGUCCCGUAAGGAGCG [G1A U2C G6U C27U C46U C66A A70G]
5. GGUCCAUUGGCGUAAUGGUAACGCGUCUCCCUCCUAAGGAGACGAUUGCGGGUUCGAGUCCCGUACGGAACG [U2G G6A A43C C46U]
6. AUUCCGUUGGCGUAAUGGUAACGCGUCUCCCUCCUAAGGAGACGACUGCGGGUUCGAGUCCCGUAUGGAGCG [G1A A43C C66U A70G]
7. ACUCCUUUGGCGUAAUGGUAACGCGUUUCCCUCCUAAGGAGACGAUUGCGGGUUCGAGUCCCGUAUGGAUCG [G1A U2C G6U C27U A43C C46U C66U A70U]

-0.212
-0.302
-0.301
-0.0541
-0.0442
-0.236
-0.243

Each of the following entries comes with a recorded value; kindly state yeast fitness (ln) for each.
1. GUUCCAUUGGCGUAAUGGUAACGCGUCUCCCUCCUAAGGAGACGAUUGCGGGUUCGAGUCCCGUACGGGGUG [G6A A43C C46U A69G A70G C71U]
2. GCUCCUUUGGCGUAAUGGUAACGCGUCUCCCUCCUAAGGAGAAGACUGCGGGUUCGAGUCCCGUAUGGAGUG [U2C G6U C66U A70G C71U]

1. -0.241
2. -0.0593

Would you mind giving yeast fitness (ln) for every variant in the list below?
1. GGUCCAUUGGCGUAAUGGUAACGCGUCUCCCUCCUAAGGAGACGACUGCGGGUUCGAGUCCCGUAAGGGUUG [U2G G6A A43C C66A A69G A70U C71U]
2. GGUCCAUUGGCGUAAUGGUAACGCGUUUCCCUCCUAAGGAGACGACUGCGGGUUCGAGUCCCGUAUGGAUUG [U2G G6A C27U A43C C66U A70U C71U]
3. GUUCCAUUGGCGUAAUGGUAACGCGUUUCCCUCCUAAGGAGAAGAUUGCGGGUUCGAGUCCCGUAAGGAGUG [G6A C27U C46U C66A A70G C71U]
4. AUUCCUUUGGCGUAAUGGUAACGCGUUUCCCUCCUAAGGAGACGACUGCGGGUUCGAGUCCCGUAAGGAAUG [G1A G6U C27U A43C C66A C71U]
5. ACUCCUUUGGCGUAAUGGUAACGCGUUUCCCUCCUAAGGAGACGACUGCGGGUUCGAGUCCCGUAUGGGGUG [G1A U2C G6U C27U A43C C66U A69G A70G C71U]

1: -0.329; 2: -0.339; 3: -0.252; 4: -0.498; 5: -0.117

Reference for the values: the RNAGym collection of RNA variant scans (doi:10.1038/s41586-018-0170-7)
